# Test system: A2780/AD cell line
# Type: cell-based, human
# settings: A2780/AD, 24 h exposure; read-out: IC50 24 h
measured.attribute: pIC50
// pIC50: -log10(molar conc.)

Exam item: Would you mind telling me what pIC50 value was observed for O.O.O.O.O.O.O.O.O.O.O.O.O.O.O.O=P([O-])([O-])OP(=O)([O-])[O-].[Cu+2].[Na+].[Na+].c1cnc2c(c1)ccc1cccnc12 [compound 4, {[Cu(phen)(H2O)(P2O7)] [Na2(H2O)8]}.6H2O] ?
Marked response: 6.22

Exam item: Would you mind telling me what pIC50 value was observed for O=P([O-])(O)OP(=O)([O-])O.[Co+2].c1cnc2c(c1)ccc1cccnc12.c1cnc2c(c1)ccc1cccnc12 [compound 1, [Co(phen)2(H2P2O7)].4H2O] ?
Marked response: 5.30

Exam item: Would you mind telling me what pIC50 value was observed for O.O=P([O-])(O)OP(=O)([O-])O.[Cu+2].c1cnc2c(c1)ccc1cccnc12 [compound 3, [Cu(phen)(H2O)(H2P2O7)]] ?
Marked response: 6.15
